Origin of values: patent US11471508B2

measurement notes: in vivo
experimental setup: male, Sprague-Dawley, rat, iv, 1 mg/kg, AUCtest
measured metric: AUC
Give the figure together with its unit, number first.

Problem: Consider the compound NC(=O)N(CCC(=O)O)NC(=O)[C@H](CO)NC(=O)[C@H](CO)NC(=O)N(N)Cc1ccccc1 [K883] and give its measured AUC.
Solution: 3770 ng·h/mL
